Target: GSPT1 (Homo sapiens, UniProt P15170+Q96SW2)
Sequence (P15170 whole entry): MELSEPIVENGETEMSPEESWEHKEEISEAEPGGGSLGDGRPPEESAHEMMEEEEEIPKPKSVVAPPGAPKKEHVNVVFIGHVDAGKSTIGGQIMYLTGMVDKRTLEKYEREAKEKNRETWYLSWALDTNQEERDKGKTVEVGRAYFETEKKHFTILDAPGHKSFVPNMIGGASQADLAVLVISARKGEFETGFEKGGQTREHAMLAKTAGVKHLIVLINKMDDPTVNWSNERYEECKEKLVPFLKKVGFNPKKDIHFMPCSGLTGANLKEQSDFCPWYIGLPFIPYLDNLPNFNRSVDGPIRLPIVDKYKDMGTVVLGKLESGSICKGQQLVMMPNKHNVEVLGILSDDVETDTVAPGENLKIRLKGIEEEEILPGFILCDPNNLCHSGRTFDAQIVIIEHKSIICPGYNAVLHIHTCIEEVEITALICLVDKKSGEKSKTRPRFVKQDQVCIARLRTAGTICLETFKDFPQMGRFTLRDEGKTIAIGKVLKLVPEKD
Sequence (Q96SW2 whole entry): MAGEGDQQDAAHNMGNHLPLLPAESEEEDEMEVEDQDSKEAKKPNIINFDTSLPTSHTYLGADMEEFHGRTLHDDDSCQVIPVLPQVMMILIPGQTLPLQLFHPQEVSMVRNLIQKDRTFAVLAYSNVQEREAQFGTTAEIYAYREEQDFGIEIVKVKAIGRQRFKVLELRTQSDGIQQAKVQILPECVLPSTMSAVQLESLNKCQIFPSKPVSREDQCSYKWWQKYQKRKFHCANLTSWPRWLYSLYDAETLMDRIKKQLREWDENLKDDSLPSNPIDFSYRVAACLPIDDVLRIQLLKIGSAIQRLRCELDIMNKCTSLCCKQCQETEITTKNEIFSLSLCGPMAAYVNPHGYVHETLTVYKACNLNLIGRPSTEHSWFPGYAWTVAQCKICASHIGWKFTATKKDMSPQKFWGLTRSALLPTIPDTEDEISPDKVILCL
Sequence (Q16531 whole entry partner): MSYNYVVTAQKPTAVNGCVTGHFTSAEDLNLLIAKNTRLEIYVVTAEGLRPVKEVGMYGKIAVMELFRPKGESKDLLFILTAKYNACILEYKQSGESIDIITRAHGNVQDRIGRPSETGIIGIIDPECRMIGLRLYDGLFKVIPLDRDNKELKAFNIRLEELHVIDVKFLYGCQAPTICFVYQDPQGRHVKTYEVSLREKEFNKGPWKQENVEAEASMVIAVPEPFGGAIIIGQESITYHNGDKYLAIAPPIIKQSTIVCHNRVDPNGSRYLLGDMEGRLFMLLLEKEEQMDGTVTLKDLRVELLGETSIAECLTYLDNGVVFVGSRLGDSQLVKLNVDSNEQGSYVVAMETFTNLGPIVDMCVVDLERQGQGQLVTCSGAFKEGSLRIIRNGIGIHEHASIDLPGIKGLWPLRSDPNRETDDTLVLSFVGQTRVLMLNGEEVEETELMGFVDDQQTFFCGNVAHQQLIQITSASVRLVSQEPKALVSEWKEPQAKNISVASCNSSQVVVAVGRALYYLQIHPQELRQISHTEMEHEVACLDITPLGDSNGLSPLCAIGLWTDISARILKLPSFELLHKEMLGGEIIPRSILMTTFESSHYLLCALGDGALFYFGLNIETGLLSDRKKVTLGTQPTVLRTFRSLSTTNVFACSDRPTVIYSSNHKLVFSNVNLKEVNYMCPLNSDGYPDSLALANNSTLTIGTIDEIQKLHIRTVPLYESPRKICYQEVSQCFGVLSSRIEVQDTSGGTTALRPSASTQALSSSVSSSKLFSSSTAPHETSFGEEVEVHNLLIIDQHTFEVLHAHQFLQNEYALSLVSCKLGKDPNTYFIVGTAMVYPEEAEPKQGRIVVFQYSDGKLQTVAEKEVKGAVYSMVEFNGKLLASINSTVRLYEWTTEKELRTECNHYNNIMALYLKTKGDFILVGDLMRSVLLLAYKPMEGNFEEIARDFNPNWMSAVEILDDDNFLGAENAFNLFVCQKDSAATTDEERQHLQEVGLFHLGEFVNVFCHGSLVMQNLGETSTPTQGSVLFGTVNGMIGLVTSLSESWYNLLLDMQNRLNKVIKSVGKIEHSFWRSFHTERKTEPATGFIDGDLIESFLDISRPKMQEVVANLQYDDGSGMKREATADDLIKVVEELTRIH
Experiment: HiBiT degradation assay, GSPT1, Procedure B (Molt 4_hGSPT1_HiBIT cells)
Type: cell-based
Set-up: Molt 4_hGSPT1_HiBIT N-terminus tagged cells were generated using CRISPR technology; endogenous in cells; host or cells: Molt 4 cells, CRISPR-edited
Conditions: six hours
readoutType: DC50

So for Cn1ncc(-c2ccc3c(c2)CN(C2CCC(=O)NC2=O)C3=O)c1C1=CCC(F)(F)CC1 (stereo not drawn) [Example 698] , the logged DC50 turned out to be ≥ 25 nM

Lookup result for Cn1cc(-c2ccc3c(c2)CN(C2CCC(=O)NC2=O)C3=O)nc1-c1ccccc1C(F)(F)F (stereo not drawn) [Example 649] ; measured DC50: < 25 nM

response.value for Cn1cc(-c2ccc3c(c2)CN(C2CCC(=O)NC2=O)C3=O)nc1-c1ccccc1N (stereo not drawn) [Example 634] (field: DC50) = ≥ 25 nM

Query Cn1cc(-c2ccc3c(c2)CN(C2CCC(=O)NC2=O)C3=O)nc1-c1ccc(N2CCNCC2)cc1 (stereo not drawn) [Example 721] yields DC50 of ≥ 25 nM

// DC50 lookup, compound = CCc1nc(-c2ccc3c(c2)CN(C2CCC(=O)NC2=O)C3=O)c(-c2ccccc2)o1 (stereo not drawn) [Example 720] , result: < 25 nM

The recorded DC50 for C[C@H]1CCCCN1c1nc(-c2ccc3c(c2)CN(C2CCC(=O)NC2=O)C3=O)nn1C (stereo partly drawn) [Example 708] is ≥ 25 nM
